# ASSAY SUMMARY: Binding to delta opioid receptor by using [3H]DPDPE as radioligand in guinea pig brain minus cerebellum
Reported pIC50 values for the following compounds.
For clarity, pIC50 is expressed as the negative log10 of concentration in mol/L.

> print(dat)
                                smiles.data  observable  experimental.result
1  CN1CC[C@]23c4c5ccc(-c6ccoc6)c4O[C@H]2[C@@H](O)C=C[C@H]3[C@H]1C5       pIC50                 5.13

From here, focus on the item given below.
Tell me the measured pIC50 of CC(=O)c1ccc2c3c1O[C@H]1[C@@H](O)C=C[C@H]4[C@@H](C2)N(C)CC[C@@]341 , please.
5.10
